test system: IL-1β, human peripheral blood mononuclear cells (PBMC); assay: PBMC cell assay: IL-1β assay with human PBMC or enriched adherent mononuclear cells, LPS-stimulated; type: cell-based; settings: Homo sapiens, PBMC, Table 17
Task for the reader: assign each of the following compounds its reported pIC50.
One number for each entry, as −log10 of the molar value.

| compound | experimental_system | pIC50 |
| --- | --- | --- |
| COc1c(C)cc(C(=O)N[C@H]2CN(C(C)=O)c3ccccc3N(CC(=O)N[C@H](C=O)CC(=O)O)C2=O)cc1C | IL-1β, human peripheral blood mononuclear cells (PBMC) | 5.30 |
| COc1ccccc1C(=O)C(=O)N[C@H]1CN(C(C)=O)c2ccccc2N(CC(=O)N[C@H](C=O)CC(=O)O)C1=O | IL-1β, human peripheral blood mononuclear cells (PBMC) | 5.64 |
| COc1c(Cl)cc(C(=O)NN2CCC(=O)N3CCC[C@@H](C(=O)N[C@H](C=O)CC(=O)O)N3C2=O)cc1Cl | IL-1β, human peripheral blood mononuclear cells (PBMC) | 5.64 |
| CC(=O)Nc1ccc(C(=O)N[C@H]2CN(C(=O)CO)c3ccccc3N(CC(=O)N[C@H](C=O)CC(=O)O)C2=O)cc1Cl | IL-1β, human peripheral blood mononuclear cells (PBMC) | 5.59 |
| O=C[C@H](CC(=O)O)NC(=O)CN1C(=O)[C@@H](NC(=O)c2cc3ccccc3[nH]2)CN(C(=O)CO)c2ccccc21 | IL-1β, human peripheral blood mononuclear cells (PBMC) | 5.70 |
| O=C1C[C@H](NC(=O)[C@@H]2CCCN3C(=O)CC[C@H](NC(=O)c4ccccc4)C(=O)N23)C(OCCc2ccccc2)O1 (mixture of isomers) [Compound 2100k] | IL-1β, human peripheral blood mononuclear cells (PBMC) | 5.40 |
| O=C[C@H](CC(=O)O)NC(=O)[C@@H]1CCCN2C(=O)CCN(NC(=O)C(=O)c3c[nH]c4ccccc34)C(=O)N12 | IL-1β, human peripheral blood mononuclear cells (PBMC) | 5.85 |
| CCOC1OC(=O)C[C@@H]1NC(=O)[C@@H]1CCCN2C(=O)CC[C@H](NC(=O)c3cc4ccccc4[nH]3)C(=O)N12 (stereo partly shown) [Compound 550o] | IL-1β, human peripheral blood mononuclear cells (PBMC) | 6.35 |

Please look at the items below and tell me pIC50 for each one, in order.
1. COc1cccc(OC)c1C(=O)C(=O)NN1CCC(=O)N2CCC[C@@H](C(=O)N[C@H](C=O)CC(=O)O)N2C1=O
2. Cc1cc(C)c(C(=O)C(=O)NN2CCC(=O)N3CCC[C@@H](C(=O)N[C@H](C=O)CC(=O)O)N3C2=O)c(C)c1
3. COCC(=O)N1C[C@H](NC(=O)c2cc(Cl)c(O)c(Cl)c2)C(=O)N(CC(=O)N[C@H](C=O)CC(=O)O)c2ccccc21 [Compound 689a]
4. CC(=O)Nc1ccc(C(=O)N[C@H]2CCC(=O)N3CCC[C@@H](C(=O)N[C@H]4CC(=O)OC4OCc4ccccc4)N3C2=O)cc1 (stereo partly shown) [Compound 213x]
5. COc1ccccc1C(=O)C(=O)N[C@H]1CN(C(=O)CO)c2ccccc2N(CC(=O)N[C@H](C=O)CC(=O)O)C1=O
6. COCC(=O)N1C[C@H](NC(=O)C(=O)c2ccccc2)C(=O)N(CC(=O)N[C@H](C=O)CC(=O)O)c2ccccc21
7. O=C[C@H](CC(=O)O)NC(=O)[C@@H]1CCCN2C(=O)CCN(NC(=O)CCc3ccccc3)C(=O)N12
8. O=C[C@H](CC(=O)O)NC(=O)[C@@H]1CCCN2C(=O)CC[C@H](NC(=O)c3cc(Cl)c(O)c(Cl)c3)C(=O)N12 [Compound 214k]

5.74
5.77
6.04
5.35
5.74
5.10
5.46
6.30

Please look at the items below and tell me pIC50 for each one, in order.
1. O=C1C[C@H](NC(=O)[C@@H]2CCCN3C(=O)CC[C@H](NC(=O)c4ccccc4)C(=O)N23)C(OC2CCCC2)O1 (stereo partly shown) [Compound 2100l]
2. COc1c(Cl)cc(C(=O)N[C@H]2CCC(=O)N3CCC[C@@H](C(=O)N[C@H](C=O)CC(=O)O)N3C2=O)cc1Cl [Compound 214m]
3. O=C[C@H](CC(=O)O)NC(=O)[C@@H]1CCCN2C(=O)CC[C@H](NC(=O)C(=O)Nc3ccc(Cl)cc3)C(=O)N12
4. Cc1cc(C(=O)N[C@H]2CN(C(=O)CO)c3ccccc3N(CC(=O)N[C@H](C=O)CC(=O)O)C2=O)cc(C)c1O [Compound 691a]

1. 6.12
2. 6.28
3. 5.74
4. 5.54

Please look at the items below and tell me pIC50 for each one, in order.
1. O=C[C@H](CC(=O)O)NC(=O)CN1C(=O)[C@@H](NC(=O)c2ccccc2)CN(C(=O)CO)c2ccccc21
2. O=C[C@H](CC(=O)O)NC(=O)[C@@H]1CCCN2C(=O)CCN(NC(=O)c3cc4ccccc4[nH]3)C(=O)N12

1: 5.28; 2: 5.30

---

system: IL-1β, human whole blood; test: Whole blood assay for IL-1β production; format: cell-based; details: Homo sapiens, * = values obtained upon reassay; read-out: Whole human blood IC50
quantity_measured: pIC50
One number for each entry, as −log10 of the molar value.

Examples with their reported pIC50 follow.
| compound | pIC50 |
| --- | --- |
| CC(=O)N1C[C@H](NC(=O)c2nccc3ccccc23)C(=O)N(CC(=O)N[C@H](C=O)CC(=O)O)c2ccccc21 | 4.72 |
| COCC(=O)N1C[C@H](NC(=O)c2cccc3ccccc23)C(=O)N(CC(=O)N[C@H](C=O)CC(=O)O)c2ccccc21 | 5.46 |
| O=C[C@H](CC(=O)O)NC(=O)[C@@H]1CCCN2C(=O)CC[C@H](NC(=O)c3cccc4cccnc34)C(=O)N12 | 5.49 |
| CC(=O)N1C[C@H](NC(=O)OCc2ccccc2)C(=O)N(CC(=O)N[C@H](C=O)CC(=O)O)c2ccccc21 | 4.70 |
| COc1cccc2oc(C(=O)[C@H](CC(=O)O)NC(=O)[C@@H]3CCCN4C(=O)CC[C@H](NC(=O)CCc5ccccc5)C(=O)N34)nc12 [Compound 135b] | 5.77 |
| O=C(O)C[C@H](NC(=O)[C@@H]1CCCN2C(=O)CC[C@H](NC(=O)c3ccccc3)C(=O)N12)C(=O)CSCc1ccccc1Cl [Compound 226e] | 5.74 |
| CCC(=O)Nc1ccc(C(=O)N[C@H]2CCC(=O)N3CCC[C@@H](C(=O)N[C@H](C=O)CC(=O)O)N3C2=O)cc1 | 6.05 |
| O=C[C@H](CC(=O)O)NC(=O)[C@@H]1CCCN2C(=O)CC[C@H](NC(=O)c3ccc4nc[nH]c4c3)C(=O)N12 | 5.74 |
| Cc1c(O)cccc1C(=O)N[C@H]1CCC(=O)N2CCC[C@@H](C(=O)N[C@H](C=O)CC(=O)O)N2C1=O | 5.60 |
| CS(=O)(=O)Nc1ccc(C(=O)N[C@H]2CCC(=O)N3CCC[C@@H](C(=O)N[C@H](C=O)CC(=O)O)N3C2=O)cc1 | 5.82 |

Please look at the items below and tell me pIC50 for each one, in order.
1. O=C[C@H](CC(=O)O)NC(=O)[C@@H]1CCCN2C(=O)CCN(NC(=O)c3ccccc3)C(=O)N12
2. O=C[C@H](CC(=O)O)NC(=O)[C@@H]1CCCN2C(=O)CC[C@H](NC(=O)c3ccccc3)C(=O)N12 [Compound 214e]
3. COc1ccc(C(=O)N[C@H]2CCC(=O)N3CCC[C@@H](C(=O)N[C@H](C=O)CC(=O)O)N3C2=O)cc1Cl
4. O=C[C@H](CC(=O)O)NC(=O)[C@@H]1CCCN2C(=O)CC[C@H](NC(=O)c3ccc4ccccc4n3)C(=O)N12
5. O=C[C@H](CC(=O)O)NC(=O)[C@@H]1CCCN2CCC[C@H](NC(=O)c3ccccc3)C(=O)N12
6. O=C[C@H](CC(=O)O)NC(=O)[C@@H]1CCCN2C(=O)CC[C@H](NC(=O)c3ccc(NC(=O)Cc4ccccc4)cc3)C(=O)N12

1. 5.85
2. 5.89
3. 6.46
4. 5.72
5. 5.00
6. 6.30

Please look at the items below and tell me pIC50 for each one, in order.
1. O=C[C@H](CC(=O)O)NC(=O)[C@@H]1CCCN2C(=O)CC[C@H](NC(=O)c3c(Cl)cccc3Cl)C(=O)N12
2. Nc1c(Cl)cc(C(=O)N[C@H]2CCC(=O)N3CCC[C@@H](C(=O)N[C@H](C=O)CC(=O)O)N3C2=O)cc1Cl
3. O=C[C@H](CC(=O)O)NC(=O)[C@@H]1CCCN2C(=O)CC[C@H](NC(=O)c3ccc(NC(=O)c4ccccc4)cc3)C(=O)N12
4. O=C[C@H](CC(=O)O)NC(=O)[C@@H]1CCCN2C(=O)CC[C@H](NC(=O)c3ccc4cc(O)ccc4c3)C(=O)N12

5.46
6.42
6.15
6.19

Data origin: patent US20120165319A1
